TARGET_DESC: human C5aR (Homo sapiens (Human))
Sequence (P21730 whole entry): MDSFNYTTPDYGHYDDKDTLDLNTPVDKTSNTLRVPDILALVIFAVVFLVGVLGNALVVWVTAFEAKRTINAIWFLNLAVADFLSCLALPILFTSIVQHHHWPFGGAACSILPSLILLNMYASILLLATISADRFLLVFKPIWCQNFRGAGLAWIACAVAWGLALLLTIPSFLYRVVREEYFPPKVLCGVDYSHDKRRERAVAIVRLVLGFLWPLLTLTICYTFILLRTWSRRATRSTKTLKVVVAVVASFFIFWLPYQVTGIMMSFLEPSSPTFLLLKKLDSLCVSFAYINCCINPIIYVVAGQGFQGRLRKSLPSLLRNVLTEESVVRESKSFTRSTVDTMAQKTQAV
ASSAY_PROTOCOL: FLIPR assay: inhibition of C5a-mediated calcium mobilization
EXPERIMENTAL_CONTEXT: stable cell line over expressing human C5aR & Gα15, human C5a at EC50 (0.1-0.25 nM)
pIC50: −log10 of the molar value.
Rule: Fulfilled for pIC50 not less than 8, Not fulfilled for anything less.

SMILES_STR: COc1nc(-c2c(C)ccc3[nH]nc(C)c23)nc2c1CN(c1cc(C3(C)COC3)ccc1C)CC2
CLASS_ASSIGNMENT: Not fulfilled
//
SMILES_STR: CO[C@@H]1CCN(c2nc(-c3c(C)ccc4[nH]nc(C)c34)nc3c2CN(c2cc(C4(C)COC4)ccc2C)CC3)[C@H](C)C1
CLASS_ASSIGNMENT: Fulfilled
//
SMILES_STR: Cc1cc(N2CCc3nc(-c4c(C)cccc4C)nc(N4CCCC(C)(C)C4)c3C2)n(C)n1
CLASS_ASSIGNMENT: Not fulfilled
//
SMILES_STR: [2H]C1([2H])c2c(C)cc(-c3c(CC)cccc3CC)nc2CCN1c1c(C)ccnc1C
CLASS_ASSIGNMENT: Not fulfilled
//
SMILES_STR: Cc1ccc(C(C)C)cc1N1CCc2nc(-c3cccc4[nH]cc(C)c34)nc(N[C@@H](CO)C(C)C)c2C1
CLASS_ASSIGNMENT: Not fulfilled

* * *

TARGET_DESC: human C5aR (Homo sapiens (Human))
ASSAY_PROTOCOL: FLIPR assay: inhibition of C5a-mediated calcium mobilization
EXPERIMENTAL_CONTEXT: stable cell line over expressing human C5aR & Gα15, human C5a at EC50 (0.1-0.25 nM)
Heads up, the class ranges for IC50 are bottom bin = under 4 nM, middle bin = from 4 nM up to 20 nM, top bin = 20 nM and over

COMPOUND: CO[C@H]1CCN(c2nc(-c3c(C)ccc4[nH]nc(C)c34)nc3c2CN(c2c(F)c(C4CC4)nn2C)CC3)CC1(C)C
CLASS_ASSIGNMENT: bottom bin

COMPOUND: Cc1ccc(C(C)C)cc1N1CCc2nc(-c3cccc4[nH]cc(C)c34)nc(N3CC[C@H](O)[C@H](C)C3)c2C1 (racemic)
CLASS_ASSIGNMENT: top bin

COMPOUND: Cc1ccc2[nH]nc(C)c2c1-c1nc2c(c(N3CC[C@@H](N(C)C)C3)n1)CN(c1c(Cl)c(C3CC3)nn1C)CC2
CLASS_ASSIGNMENT: middle bin

COMPOUND: CCn1nc(C2CC2)c(F)c1N1CCc2nc(-c3c(C)ccc4[nH]nc(C)c34)nc(N3CC[C@@H](OC)C(C)(C)C3)c2C1
CLASS_ASSIGNMENT: bottom bin

COMPOUND: CO[C@@H]1CCN(c2nc(-c3c(C(F)(F)F)cnc4[nH]ccc34)nc3c2CN(c2cc(C(C)C)ccc2C)CC3)[C@H](C)C1
CLASS_ASSIGNMENT: bottom bin

COMPOUND: COc1ccc(Cl)cc1-c1nc2c(c(N3CCCC(C)(C)C3)n1)CN(c1cc(C(C)C)ccc1C)CC2
CLASS_ASSIGNMENT: top bin

COMPOUND: CO[C@@H]1CCN(c2nc(-c3c(C)cccc3C)nc3c2CN(c2cc(C4CC4)nn2C)CC3)[C@H](C)C1
CLASS_ASSIGNMENT: middle bin

COMPOUND: Cc1ccc(C(C)C)cc1N1CCc2nc(-c3cccc4[nH]cc(C)c34)nc(N3CC4(COC4)C3)c2C1
CLASS_ASSIGNMENT: top bin

COMPOUND: CO[C@@H]1CCN(c2nc(-c3c(C)ccc4[nH]nc(C)c34)nc3c2CN(c2c(Cl)c(C(F)F)nn2C)CC3)CC1(C)C
CLASS_ASSIGNMENT: bottom bin

COMPOUND: CO[C@H]1CCN(c2nc(-c3cccc4[nH]cc(C)c34)nc3c2CN(c2cc(C4CC4)ccc2C)CC3)CC1(C)C
CLASS_ASSIGNMENT: top bin

COMPOUND: Cc1ccc(C(C)C)cc1N1CCc2nc(-c3c(C)ccc4[nH]nc(C)c34)nc(OCC(F)F)c2C1
CLASS_ASSIGNMENT: top bin
